B1: SCNN1D (parent)
chain: RRPSPVLRHLELLDEFARENIDSL

Variants of: B1
Experiment: protein stability index of a GFP-peptide fusion (GPS, HEK-293T) (PSI 1-6); higher = more stable;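 further: lentivirally expressed fusions sorted by FACS into six bins by GFP to DsRed ratio, PSI derived from sequencing read proportions per bin multiplied by bin number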
Conditions: c terminus: a fixed tail appended
Kind request: treat 3 as inclusive, so protein stability index at 3 or higher is Satisfied, anything lower is Not satisfied.

• L12T = Satisfied
• L10E = Satisfied
• L13W = Satisfied
• E19C = Not satisfied
• L12Q = Satisfied
• L12R = Satisfied
• L24E = Satisfied
• R1H = Not satisfied
• I21Y = Not satisfied
